target: RORγt (Mus musculus, UniProt P51450, T352K); experiment: RORγt S2 cell Gal4-luciferase reporter assay; details: IC50(μM), Drosophila S2 cells, Gal4-RORγt luciferase reporter, 20 hr
Sequence (P51450 with tags, fused parts or gaps T352K): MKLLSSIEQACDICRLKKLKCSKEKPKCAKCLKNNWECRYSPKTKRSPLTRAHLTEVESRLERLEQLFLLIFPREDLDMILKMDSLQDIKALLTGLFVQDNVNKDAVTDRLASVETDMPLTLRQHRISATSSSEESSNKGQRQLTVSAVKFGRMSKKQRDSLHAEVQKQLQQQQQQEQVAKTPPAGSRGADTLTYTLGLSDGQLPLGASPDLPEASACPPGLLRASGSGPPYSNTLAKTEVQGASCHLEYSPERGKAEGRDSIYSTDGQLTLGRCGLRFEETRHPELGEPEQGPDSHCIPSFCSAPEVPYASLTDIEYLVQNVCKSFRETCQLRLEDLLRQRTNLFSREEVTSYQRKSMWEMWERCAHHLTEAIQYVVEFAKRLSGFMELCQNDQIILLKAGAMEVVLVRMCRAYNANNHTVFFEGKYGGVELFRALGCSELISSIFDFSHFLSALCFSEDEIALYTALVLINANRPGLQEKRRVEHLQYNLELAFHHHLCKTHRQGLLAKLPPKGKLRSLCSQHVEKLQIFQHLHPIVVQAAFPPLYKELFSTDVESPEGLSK
value-type: IC50

Consider Cc1ccc(C)c(C(CC(=O)N2CCCC(C)C2)c2ccc3c(c2)OCO3)c1O (centres unmarked) . Its measured IC50 is 11 to 50 µM

Consider Cc1cccc(C(CC(=O)NCCc2ccccc2)c2ccccc2)c1O (centres unmarked) . Its measured IC50 is > 50 µM

Consider COc1cc(O)c(C(CC(=O)N2CC(C)CC(C)C2)c2ccc(Cl)c(Cl)c2)c(OC)c1 (centres unmarked) . Its measured IC50 is 1 to 10 µM

Consider COc1cc(O)c(C(CC(=O)N2CCCC(CN3CCCCC3)C2)c2ccc3c(c2)OCO3)c(OC)c1 (centres unmarked) . Its measured IC50 is > 50 µM

Consider COc1cc(O)c(C(CC(=O)N2CCCC(C(=O)c3ccccc3)C2)c2ccc3c(c2)OCO3)c(OC)c1 (centres unmarked) . Its measured IC50 is > 50 µM

Consider COc1cc(O)c(C(CC(=O)N2CCCC(COc3ccc(F)cc3)C2)c2ccc3c(c2)OCO3)c(OC)c1 (centres unmarked) . Its measured IC50 is 11 to 50 µM

Consider COc1cc(O)c(C(CC(=O)N2CC(C)CC(C)C2)c2ccc(SC)cc2)c(OC)c1 (centres unmarked) . Its measured IC50 is < 1 µM

Consider COc1cc(O)c(C(CC(=O)N2CC(C)CC(C)C2)c2ccc3c(c2)OCCO3)c(OC)c1 (centres unmarked) . Its measured IC50 is < 1 µM

====

molecular target: RORγt (Mus musculus, UniProt P51450, T352K); experiment: RORγt S2 cell Gal4-luciferase reporter assay; settings: read-out: Efficacy (%)
value-type: Emax
Remember to quote the unit after the number.

Consider COc1ccc2ccccc2c1C(c1ccc(F)cc1)C(C)(C)C(=O)N1CC(C)CC(C)C1 (centres unmarked) . Its measured Emax is 94.4%

Consider COc1cc(O)c(C(CC(=O)N2CC(C)CC(C)C2)c2cccc(Br)c2)c(OC)c1 (centres unmarked) . Its measured Emax is 103%

Consider COc1cc(O)c(C(CC(=O)N2CCCC(c3ccccc3)C2)c2ccc3c(c2)OCO3)c(OC)c1 (centres unmarked) . Its measured Emax is 70.1%

Consider COc1cc(O)c(C(CC(=O)N2CC(C)CC(C)C2)c2ccc3c(c2)OC(F)(F)O3)c(OC)c1 (centres unmarked) . Its measured Emax is 97.3%

Consider C#CCOc1cc(OC)cc(OC)c1C(CC(=O)N1CCCC(C)C1)c1ccc2c(c1)OCO2 (centres unmarked) . Its measured Emax is 98%

Consider COc1cc(O)c(C(CC(=O)N2CC(C)CC(C)C2)c2ccc3c(c2)OCCCO3)c(OC)c1 (centres unmarked) . Its measured Emax is 94%

Consider CC1CC(C)CN(C(=O)CC(c2ccc3c(c2)OCO3)c2cc(F)ccc2O)C1 (centres unmarked) . Its measured Emax is 79.7%

Consider COc1cc(O)c(C(CC(=O)N2CCCC(C)C2)c2ccccc2C)c(OC)c1 (centres unmarked) . Its measured Emax is 93.5%

====

biological target: RORγt (Mus musculus, UniProt P51450, T352K); experiment: RORγt S2 cell Gal4-luciferase reporter assay; conditions: IC50(μM), Drosophila S2 cells, Gal4-RORγt luciferase reporter, 20 hr
value-type: IC50

Reported RORγt (Mus musculus, UniProt P51450, T352K) IC50 for item COc1cc(O)c(C(CC(=O)N(C)c2cccc(C)c2)c2ccc3c(c2)OCO3)c(OC)c1 (centres unmarked) [Compound 28] was > 50 µM

Reported RORγt (Mus musculus, UniProt P51450, T352K) IC50 for item COc1cc(O)c(C(CC(=O)N2CC(C)CC(C)C2)c2cccc(F)c2)c(OC)c1 (centres unmarked) [Compound 102] was 1 to 10 µM

Reported RORγt (Mus musculus, UniProt P51450, T352K) IC50 for item COc1cc(O)c(C(CC(=O)N2CCCC(C)C2)c2ccccc2C)c(OC)c1 (centres unmarked) [Compound 63] was 1 to 10 µM

Reported RORγt (Mus musculus, UniProt P51450, T352K) IC50 for item COc1cc(O)c(C(CC(=O)N2CC(C)CC(C)C2)c2cccc(OC(C)C)c2)c(OC)c1 (centres unmarked) [Compound 94] was 1 to 10 µM

Reported RORγt (Mus musculus, UniProt P51450, T352K) IC50 for item COc1cc(O)c(C(CC(=O)N2CC(C)NC(C)C2)c2ccc3c(c2)OCO3)c(OC)c1 (centres unmarked) [Compound 42] was > 50 µM

Reported RORγt (Mus musculus, UniProt P51450, T352K) IC50 for item COCOc1cc(OC)cc(OC)c1C(CC(=O)N1CC(C)CC(C)C1)c1ccc2c(c1)OCO2 (centres unmarked) [Compound 135] was 1 to 10 µM

Reported RORγt (Mus musculus, UniProt P51450, T352K) IC50 for item COc1cc(OC)c(C(c2ccccc2)C(C)(C)C(=O)N2CC3CC4CC(C3)CC2C4)c(OC)c1 (centres unmarked) [Compound 151] was > 50 µM

Reported RORγt (Mus musculus, UniProt P51450, T352K) IC50 for item COc1cc(O)c(C(CC(=O)N2CC(C)CC(C)C2)c2ccc(C(N)=O)cc2)c(OC)c1 (centres unmarked) [Compound 111] was 1 to 10 µM

Reported RORγt (Mus musculus, UniProt P51450, T352K) IC50 for item COc1cc(OC)c(C(CC(=O)N2CC(C)CC(C)C2)c2ccc3c(c2)OCO3)c(OCC(N)=O)c1 (centres unmarked) [Compound 137] was 11 to 50 µM

Reported RORγt (Mus musculus, UniProt P51450, T352K) IC50 for item CCCC1CCN(C(=O)CC(c2ccc3c(c2)OCO3)c2c(O)cc(OC)cc2OC)C1 (centres unmarked) [Compound 9] was 11 to 50 µM

Reported RORγt (Mus musculus, UniProt P51450, T352K) IC50 for item COc1ccccc1C(CC(=O)N1CCCCC1)c1ccccc1 (centres unmarked) [Compound 56] was 1 to 10 µM

Reported RORγt (Mus musculus, UniProt P51450, T352K) IC50 for item COc1cc(O)c(C(CC(=O)N2CCCC(c3nc4ccccc4o3)C2)c2ccc3c(c2)OCO3)c(OC)c1 (centres unmarked) [Compound 18] was 11 to 50 µM

Reported RORγt (Mus musculus, UniProt P51450, T352K) IC50 for item CCC1CCCN(C(=O)CC(c2ccc3c(c2)OCO3)c2c(O)cc(OC)cc2OC)C1 (centres unmarked) [Compound 7] was 1 to 10 µM

Reported RORγt (Mus musculus, UniProt P51450, T352K) IC50 for item COc1cc(O)c(C(CC(=O)N2CC(C)CC(C)C2)c2cccc(C#N)c2)c(OC)c1 (centres unmarked) [Compound 87] was < 1 µM

Reported RORγt (Mus musculus, UniProt P51450, T352K) IC50 for item COc1cc(O)c(C(CC(=O)N2CC(C)CC(C)C2)c2ccc3c(c2)OCCCO3)c(OC)c1 (centres unmarked) [Compound 80] was < 1 µM

Reported RORγt (Mus musculus, UniProt P51450, T352K) IC50 for item COc1cc(O)c(C(CC(=O)N2CCCC(C)C2)c2cccc3ccccc23)c(OC)c1 (centres unmarked) [Compound 66] was 11 to 50 µM

Reported RORγt (Mus musculus, UniProt P51450, T352K) IC50 for item COc1cc(O)c(C(CC(=O)N2CC(C)CC(C)C2)c2ccc(C(C)=O)cc2)c(OC)c1 (centres unmarked) [Compound 100] was < 1 µM

Reported RORγt (Mus musculus, UniProt P51450, T352K) IC50 for item COc1cc(O)c(C(CC(=O)N2CCCC2)c2ccc3c(c2)OCO3)c(OC)c1 (centres unmarked) [Compound 37] was 11 to 50 µM

Reported RORγt (Mus musculus, UniProt P51450, T352K) IC50 for item COc1cc(O)c(C(CC(=O)N[C@H](C)c2ccccc2)c2ccc3c(c2)OCO3)c(OC)c1 (some centres unmarked) [Compound 34] was > 50 µM

Reported RORγt (Mus musculus, UniProt P51450, T352K) IC50 for item COc1cc(O)c(C(CC(=O)NC2CCCc3ccccc32)c2ccc3c(c2)OCO3)c(OC)c1 (centres unmarked) [Compound 26] was > 50 µM

Reported RORγt (Mus musculus, UniProt P51450, T352K) IC50 for item CC1CC(C)CN(C(=O)CC(c2ccc3c(c2)OCO3)c2ccc(F)cc2O)C1 (centres unmarked) [Compound 144] was 11 to 50 µM

Reported RORγt (Mus musculus, UniProt P51450, T352K) IC50 for item COc1cc(O)c(C(CC(=O)N2CCCC(C(C)C)C2)c2ccc3c(c2)OCO3)c(OC)c1 (centres unmarked) [Compound 11] was 11 to 50 µM

Reported RORγt (Mus musculus, UniProt P51450, T352K) IC50 for item COc1cc(O)c(C(CC(=O)Nc2ccc(C)cc2)c2ccc3c(c2)OCO3)c(OC)c1 (centres unmarked) [Compound 29] was > 50 µM

Reported RORγt (Mus musculus, UniProt P51450, T352K) IC50 for item Cc1cccc(C(CC(=O)NCc2ccco2)c2ccccc2)c1O (centres unmarked) [Compound 49] was > 50 µM

Reported RORγt (Mus musculus, UniProt P51450, T352K) IC50 for item COc1c(C(CC(=O)N2CC(C)CC(C)C2)c2ccc3c(c2)OCO3)c(O)cc2occc12 (centres unmarked) [Compound 139] was < 1 µM

Reported RORγt (Mus musculus, UniProt P51450, T352K) IC50 for item CCOc1ccc(C(CC(=O)N2CCCC(C)C2)c2c(O)cc(OC)cc2OC)cc1 (centres unmarked) [Compound 62] was 1 to 10 µM

Reported RORγt (Mus musculus, UniProt P51450, T352K) IC50 for item CC(=O)Nc1ccc(C(CC(=O)N2CC(C)CC(C)C2)c2ccc3c(c2)OCO3)c(O)c1 (centres unmarked) [Compound 133] was 1 to 10 µM

Reported RORγt (Mus musculus, UniProt P51450, T352K) IC50 for item COc1cc(O)c(C(CC(=O)N2CCCC(C)C2)c2ccc(OC)c(OC)c2)c(OC)c1 (centres unmarked) [Compound 58] was 11 to 50 µM

Reported RORγt (Mus musculus, UniProt P51450, T352K) IC50 for item COc1cc(O)c(C(CC(=O)N2CCOCC2)c2ccc3c(c2)OCO3)c(OC)c1 (centres unmarked) [Compound 4] was 11 to 50 µM

Reported RORγt (Mus musculus, UniProt P51450, T352K) IC50 for item CCC1(CC)CCN(C(=O)CC(c2ccc3c(c2)OCO3)c2c(O)cc(OC)cc2OC)C1 (centres unmarked) [Compound 10] was 11 to 50 µM

Reported RORγt (Mus musculus, UniProt P51450, T352K) IC50 for item COc1ccc(C(CC(=O)N2CCCC(C)C2)c2c(O)cc(OC)cc2OC)cc1 (centres unmarked) [Compound 60] was 1 to 10 µM

Reported RORγt (Mus musculus, UniProt P51450, T352K) IC50 for item COc1cc(O)c(C(CC(=O)NCC2CCCCC2)c2ccc3c(c2)OCO3)c(OC)c1 (centres unmarked) [Compound 24] was > 50 µM
